- Tested on: human cervical tumor cell line HeLa (ATCC CCL-2)
- assay protocol: SAC-Formation - Nocodazole-Induced Assay
- Type: cell-based
- condition label: Homo sapiens, HeLa, 24 h, HeLa cells, nocodazole 0.1 μg/ml together with test compound, decrease of mitotic cells (phospho-histone H3 Ser10)
pIC50: −log10 of the molar value.
Would you mind labelling by pIC50? At or over 7 is YES, under is NO.

Input line: Determine whether this molecule has pIC50 no lower than 7: CCN1CCC(COc2ccc(NC(=O)c3c(C)nsc3Nc3cnc(C(F)(F)F)cn3)cn2)C(F)(F)C1 (stereo not drawn)
Output line: YES

Input line: Test whether the molecule `CCN1CC[C@@H](Oc2ccc(NC(=O)c3c(C)nsc3Nc3cnc(C(F)(F)F)cn3)cn2)[C@H](F)C1` records pIC50 of 7 or higher.
Output line: YES

Input line: Could you please find out whether `Cc1nsc(Nc2cnc(C(F)(F)F)cn2)c1C(=O)Nc1ccc(O[C@@H]2CN(CC(F)(F)F)C[C@@H]2F)nc1` has pIC50 that meets 7 or exceeds it?
Output line: YES

Input line: Evaluate Cc1nsc(Nc2cnc(C(F)(F)F)cn2)c1C(=O)Nc1ccc(OCC2CCCN(CC(F)F)C2)nc1 (stereo not drawn) : pIC50 at minimum 7?
Output line: YES

Input line: In plain terms: is recorded pIC50 at least 7 for Cc1nsc(Nc2cnc(C(F)(F)F)cn2)c1C(=O)Nc1ccc(OCC2CCN(CCF)C2)nc1 (stereo not drawn) ?
Output line: NO

Input line: Check the entry `Cc1nsc(Nc2cnc(C(F)(F)F)cn2)c1C(=O)Nc1ccc(OCCO)nc1` : does pIC50 equal or exceed 7?
Output line: NO

Input line: In plain terms: is recorded pIC50 at least 7 for `Cc1nsc(Nc2ccc(C#N)cn2)c1C(=O)Nc1ccc(OC2CCN(CCF)CC2)nc1` ?
Output line: NO

Input line: Is it the case that `Cc1nsc(Nc2cnc(C(F)(F)F)cn2)c1C(=O)Nc1ccc(O[C@H]2CCN(CC(F)F)C[C@H]2F)nc1` has pIC50 reaching or exceeding 7?
Output line: YES

Input line: Check this molecule for pIC50 at or above 7: `Cc1nsc(Nc2cc(C#N)ccn2)c1C(=O)Nc1ccc(OC2CCNCC2)nc1`
Output line: NO

Input line: pIC50 >= 7 for `Cc1nsc(Nc2cnc(C(F)(F)F)cn2)c1C(=O)Nc1ccc(O[C@H]2CCN(CC(F)(F)F)C2)nc1` ?
Output line: YES

Input line: Form field: pIC50 at least 7? Entry: `CCCN1CC[C@H](Oc2ccc(NC(=O)c3c(C)nsc3Nc3cnc(C(F)(F)F)cn3)cn2)[C@@H](F)C1`
Output line: YES

Input line: Decide: pIC50 of `Cc1nsc(Nc2cncc(C(F)(F)F)n2)c1C(=O)Nc1ccc(C(=O)OC(C)(C)C)cc1` >= 7?
Output line: NO

Input line: Dear colleague, could you confirm whether `CCN(CC)CCNC(=O)c1cccc(NC(=O)c2c(C)nsc2Nc2cc(C#N)ccn2)c1` has pIC50 at or above 7?
Output line: NO

Input line: API: above_or_equal(metric=pIC50, cutoff=7) for item `Cc1nsc(Nc2cncc(C(F)(F)F)n2)c1C(=O)Nc1ccc(OC2CCN(CCF)CC2)c(F)c1`
Output line: NO

Input line: Given the entry `Cc1nsc(Nc2cnc3ccccc3n2)c1C(=O)Nc1cccc(C(=O)N2CCN(Cc3ccc(F)cc3)CC2)c1` , answer whether its pIC50 meets or surpasses 7.
Output line: NO

Input line: Form field: pIC50 at least 7? Entry: `Cc1nsc(Nc2cnc(C(F)(F)F)cn2)c1C(=O)Nc1ccc(OCC2CCN(C(=O)OC(C)(C)C)CC2)nc1`
Output line: YES

Input line: Hi team, for `Cc1nsc(Nc2cnc(C(F)(F)F)cn2)c1C(=O)Nc1ccc(OC2CCNCC2)c(F)c1` , is the recorded pIC50 at or above 7?
Output line: NO

Input line: Quick check: does `Cc1nsc(Nc2cnc(C(F)(F)F)cn2)c1C(=O)Nc1ccc(O[C@H]2CCN(CC(F)(F)F)C[C@H]2F)nc1` have pIC50 greater than or equal to 7?
Output line: YES

Input line: I'd appreciate it if you could say whether `CCCN1CC[C@@H](Oc2ccc(NC(=O)c3c(C)nsc3Nc3cnc(C(F)(F)F)cn3)cn2)[C@@H](F)C1` has pIC50 at least equal to 7.
Output line: YES

Input line: Threshold query (pIC50 >= 7) on `Cc1nsc(Nc2ccc(C#N)cn2)c1C(=O)Nc1cccc(N)c1`
Output line: NO

Input line: State whether the measured pIC50 reaches 7, counting equality as reaching it, for `Cc1nsc(Nc2cncc(C(F)(F)F)n2)c1C(=O)Nc1ccc(F)c(OC2CCN(C(=O)OC(C)(C)C)CC2)c1`
Output line: YES

Input line: Tell me whether pIC50 is at least 7 here: `Cc1nsc(Nc2nc3c(C(F)(F)F)cccc3s2)c1C(=O)Nc1ccc(OCCO)c(F)c1`
Output line: NO

Input line: Reported pIC50 at or above 7? `Cc1nsc(Nc2cc(C#N)ccn2)c1C(=O)Nc1cccc(NC(=O)C(C)(C)C)c1`
Output line: NO

Input line: Dear colleague, could you confirm whether `Cc1nsc(Nc2cncc(C(F)(F)F)n2)c1C(=O)Nc1cccc(S(C)(=O)=O)c1` has pIC50 at or above 7?
Output line: NO

Input line: Check the entry Cc1nsc(Nc2cnc(C(F)(F)F)cn2)c1C(=O)Nc1ccc(F)c(OCC2CCN(CC(F)F)C2)c1 (stereo not drawn) : does pIC50 equal or exceed 7?
Output line: YES

Input line: Determine whether this molecule has pIC50 no lower than 7: CCCCN1CCC(COc2ccc(NC(=O)c3c(C)nsc3Nc3cnc(C(F)(F)F)cn3)cn2)C(F)(F)C1 (stereo not drawn)
Output line: YES

----------
I'd appreciate it if you could supply pIC50 values for the items below.
- Tested on: HeLa
- assay protocol: Proliferation assay (crystal violet), HeLa
- Format: cell-based
- condition label: Homo sapiens, HeLa, 96 h, HeLa cells; 4 days incubation; crystal violet staining; read-out: IC50 inhibition of proliferation, HeLa
- Experimental: Cultivated tumor cells (cells were ordered from ATCC, except HeLa-MaTu and HeLa-MaTu-ADR, which were ordered from EPO-GmbH, Berlin) were plated at a density of 1000 to 5000 cells/well, depending on the growth rate of the respective cell line, in a 96-well multititer plate in 200 μL of their respective growth medium supplemented 10% fetal calf serum. […] Absorbtion was determined by photometry at a wavelength of 595 nm. […] The IC50 values were determined by means of a 4 parameter fit.
// pIC50: -log10(molar conc.)

Input line: Return reported pIC50 for target or system HeLa, item `Cc1nsc(Nc2cnc(C(F)(F)F)cn2)c1C(=O)Nc1ccc(N2CCN(CCC(F)(F)F)CC2)cn1` .
Output line: 6.04

Input line: // fetch pIC50 for Cc1nsc(Nc2cnc(C(F)(F)F)cn2)c1C(=O)Nc1ccc(OC[C@H]2CCN(CC(F)(F)F)C2)nc1 (racemic) [Example 133] ; system: HeLa
Output line: 6.38

Input line: System HeLa. Read-out pIC50. Item `Cc1nsc(Nc2cnc(C(F)(F)F)cn2)c1C(=O)Nc1ccc(O[C@@H]2CCCN(CC(F)F)C2)nc1` . Report value.
Output line: 6.46

Input line: Find pIC50 for `Cc1nsc(Nc2cnc(C(F)(F)F)cn2)c1C(=O)Nc1ccc(N2CCN(CC(F)(F)F)CC2)nc1` on HeLa and write it down.
Output line: 6.46

Input line: Check HeLa data and give pIC50 for `Cc1nsc(Nc2cnc3ccccc3n2)c1C(=O)Nc1cccc(C(=O)N2CCCC2)c1` .
Output line: 5.00

Input line: # return pIC50 for `COCCOc1ccc(NC(=O)c2c(C)nsc2Nc2nc3c(C(F)(F)F)cccc3s2)cc1F` , test system: HeLa
Output line: 6.24

Input line: # return pIC50 for Cc1nsc(Nc2cnc(C(F)(F)F)cn2)c1C(=O)Nc1ccc(F)c(OCC2CCCN(CCC(F)(F)F)C2)c1 (stereo not drawn) , test system: HeLa
Output line: 6.35

Input line: Report pIC50 on HeLa for this entry: Cc1nsc(Nc2cncc(C(F)(F)F)n2)c1C(=O)Nc1ccc(OC2CCCN(C(=O)OC(C)(C)C)C2)nc1 (stereo not drawn)
Output line: 6.03

Input line: # return pIC50 of `Cc1nsc(Nc2cnc3ccccc3n2)c1C(=O)Nc1cccc(C(=O)N2CCN(c3ccccc3C#N)CC2)c1` (system: HeLa)
Output line: 5.08

Input line: # lookup: HeLa pIC50, key = `Cc1nsc(Nc2cnc3ccccc3n2)c1C(=O)Nc1ccc(Nc2ccc(F)c(F)c2)nc1`
Output line: 5.00

Input line: State measured pIC50 of the molecule `Cc1nsc(Nc2cc(C#N)ccn2)c1C(=O)Nc1ccc(OCCCNC(=O)OC(C)(C)C)nc1` with HeLa.
Output line: 5.00

Input line: Recall the reported pIC50 of Cc1nsc(Nc2ccc(C#N)cn2)c1C(=O)Nc1ccc(OC2CCCN(C(=O)OC(C)(C)C)C2)nc1 (stereo not drawn) on HeLa and write it down.
Output line: 5.96
